Reported Efficacy values for a set of molecules
System Under Test: Free fatty acid receptor 1 (Homo sapiens)
Sequence (O14842 whole entry): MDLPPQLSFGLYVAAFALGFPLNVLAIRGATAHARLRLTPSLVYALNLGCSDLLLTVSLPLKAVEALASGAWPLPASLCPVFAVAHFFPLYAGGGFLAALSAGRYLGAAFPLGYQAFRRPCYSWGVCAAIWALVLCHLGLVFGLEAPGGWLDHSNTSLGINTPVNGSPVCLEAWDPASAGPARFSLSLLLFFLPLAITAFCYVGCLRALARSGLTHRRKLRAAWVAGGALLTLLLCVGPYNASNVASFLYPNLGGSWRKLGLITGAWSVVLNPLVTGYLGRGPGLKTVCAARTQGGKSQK
Experimental Protocol: Agonist activity at human FFA1 transfected in 1321N1 cells assessed as calcium mobilization by microplate assay relative to 10 uM TUG-20
Type: functional, cell-based
Observable: Efficacy (%)

>>> measured_value("O=C(O)CCc1ccc(OCc2cccc(-c3ccccc3)c2)cc1")
105
>>> measured_value("O=C(O)CCc1ccc2oc(-c3ccccc3)cc2c1")
92
>>> measured_value("Cc1ccccc1-c1cccc(COc2ccc(CCC(=O)O)cc2)c1")
112
>>> measured_value("Cc1ccc(-c2cccc(CNc3ccc(CCC(=O)O)cc3)c2)cc1")
92
>>> measured_value("COc1ccccc1-c1cccc(CNc2ccc(CCC(=O)O)cc2)c1")
109
>>> measured_value("O=C(O)CCc1ccc(NCc2cccc(C(F)(F)F)c2)cc1")
102
>>> measured_value("Cc1ccc(-c2cccc(COc3ccc(CCC(=O)O)cc3)c2)cc1")
86
>>> measured_value("O=C(O)CCc1ccc(CNc2ccccc2)cc1")
101
>>> measured_value("O=C(O)CCc1ccc(NCc2ccc(-c3ccccc3)cc2)cc1")
92
>>> measured_value("COc1ccccc1-c1cccc(COc2ccc(CCC(=O)O)cc2)c1")
105
>>> measured_value("O=C(O)CCc1ccc(NCc2ccc(Oc3ccccc3)cc2)cc1")
100
>>> measured_value("O=C(O)CCc1ccc(C#Cc2ccccc2)cc1")
108
>>> measured_value("O=C(O)CCc1ccc(NCc2ccccc2-c2ccccc2)cc1")
97
>>> measured_value("Cc1ccccc1-c1cccc(CNc2ccc(CCC(=O)O)cc2)c1")
114
>>> measured_value("O=C(O)CCc1ccc(OCc2ccc(Br)cc2)cc1")
98
>>> measured_value("O=C(O)CCc1ccc(OCc2ccc(-c3ccccc3)cc2)cc1")
97
>>> measured_value("N#Cc1cccc(COc2ccc(CCC(=O)O)cc2)c1")
102
>>> measured_value("O=C(O)CCc1ccc(NCc2ccccc2)cc1")
89
>>> measured_value("Cc1cc(Oc2ncc(C(F)(F)F)cc2Cl)ccc1CC1SC(=O)NC1=O (stereo unspecified)")
103
>>> measured_value("O=C(O)CCc1ccc(OCc2cccc(Br)c2)cc1")
99
>>> measured_value("O=C(O)CCc1ccc(OCc2ccc(Oc3ccccc3)cc2)cc1")
98
>>> measured_value("O=C(O)CCc1ccc(NCc2cccc(-c3ccccc3)c2)cc1")
101
>>> measured_value("O=C(O)CCc1ccc(OCc2cccc(Oc3ccccc3)c2)cc1")
98
>>> measured_value("O=C(O)CCc1ccc(NCc2cccc(Oc3ccccc3)c2)cc1")
103
>>> measured_value("O=C(O)CCc1ccc(OCc2ccccc2)c(I)c1")
81
>>> measured_value("O=C(O)CCc1ccc(CCc2ccccc2)cc1")
116
>>> measured_value("O=C(O)CCc1ccc(OCc2cccc(C(F)(F)F)c2)cc1")
103
>>> measured_value("O=C(O)CCc1ccc(NCc2cccc(Br)c2)cc1")
110
>>> measured_value("CC(Oc1ccc(CCC(=O)O)cc1)c1ccccc1 (stereo unspecified)")
106
>>> measured_value("O=C(O)CCc1ccc(COc2ccccc2)cc1")
88
>>> measured_value("O=C(O)CCc1ccc(OCc2ccccc2Br)cc1")
99

The origin of these recorded values is ChEMBL document CHEMBL1773039.
